STUDY_SYSTEM: human AspH (His6-AspH315–758) (Homo sapiens, UniProt Q12797)
Construct: N-Terminally His6-tagged human AspH315–758 (His6-AspH315–758) was produced in Escherichia coli BL21 (DE3) cells; made in house; host or cells: Escherichia coli BL21 (DE3), pET-28a(+) vector
ASSAY_INFO: SPE-MS AspH inhibition assay (hFX-CP101-119 substrate hydroxylation)
Assay type: biochemical
MEASUREMENT_SETUP: AspH-inhibitor screening, 384-well Plate 1, substrate conversion
So basically: Plate 1 (% conversion) at 50% or higher? That is met. Lower than 50%? That is not met.

Worked set:
MOLECULE	DISCRETE_LABEL
Cc1cn(-c2cc(NC(=O)c3ccc(C)c(Nc4nccc(-c5cccnc5)n4)c3)cc(C(F)(F)F)c2)cn1 [Nilotinib]	met
CCNC(=O)c1noc(-c2cc(C(C)C)c(O)cc2O)c1-c1ccc(CN2CCOCC2)cc1 [NVP-AUY922]	met

Next item in the queue.
Q: Has C[C@@H](Oc1cc(-c2cnn(C3CCNCC3)c2)cnc1N)c1c(Cl)ccc(F)c1Cl [PF-2341066 (Crizotinib)] a recorded Plate 1 (% conversion) greater than or equal to 50%?
Result: met

###

STUDY_SYSTEM: human AspH (His6-AspH315–758) (Homo sapiens)
Construct: N-Terminally His6-tagged human AspH315–758 (His6-AspH315–758) was produced in Escherichia coli BL21 (DE3) cells; made in house; host or cells: Escherichia coli BL21 (DE3), pET-28a(+) vector
Sequence (Q12797 315-758): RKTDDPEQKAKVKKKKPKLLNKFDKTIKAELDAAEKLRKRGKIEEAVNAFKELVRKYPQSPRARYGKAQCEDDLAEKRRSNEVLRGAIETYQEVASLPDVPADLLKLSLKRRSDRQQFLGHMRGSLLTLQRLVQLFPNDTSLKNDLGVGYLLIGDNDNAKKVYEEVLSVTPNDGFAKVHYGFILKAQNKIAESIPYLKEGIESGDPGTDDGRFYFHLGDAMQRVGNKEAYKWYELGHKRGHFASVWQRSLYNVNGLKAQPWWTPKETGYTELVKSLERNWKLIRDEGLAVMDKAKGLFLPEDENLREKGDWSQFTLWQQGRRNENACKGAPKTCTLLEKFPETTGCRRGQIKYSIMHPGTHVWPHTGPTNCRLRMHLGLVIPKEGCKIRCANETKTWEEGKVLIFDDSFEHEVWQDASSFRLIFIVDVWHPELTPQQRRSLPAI
ASSAY_INFO: SPE-MS AspH inhibition assay (hFX-CP101-119 substrate hydroxylation)
Type: biochemical
MEASUREMENT_SETUP: AspH-inhibitor screening, Plate 1-duplicate, substrate conversion
Recorded Plate 1-duplicate (% conversion), one value per entry.
Enter your answer as a number in %; do not include the unit.

// worked examples, Plate 1-duplicate (% conversion) included
COMPOUND	STUDY_SYSTEM	Plate 1-duplicate (% conversion) / %
c1cc(CN2CCCNCCNCCCNCC2)ccc1CN1CCCNCCNCCCNCC1 [Plerixafor]	human AspH (His6-AspH315–758) (Homo sapiens)	49.45
Cc1nc(Nc2ncc(C(=O)Nc3c(C)cccc3Cl)s2)cc(N2CCN(CCO)CC2)n1 [Dasatinib]	human AspH (His6-AspH315–758) (Homo sapiens)	62.52
NC(=O)NO [Hydroxyurea]	human AspH (His6-AspH315–758) (Homo sapiens)	47.74
O=C(CCCCCCC(=O)Nc1ccc([C@H]2O[C@@H](CSc3nc(-c4ccccc4)c(-c4ccccc4)o3)C[C@@H](c3ccc(CO)cc3)O2)cc1)NO [Tubacin, reference compound]	human AspH (His6-AspH315–758) (Homo sapiens)	8.45
O=NN(CCCl)C(=O)NC1CCCCC1 [Lomustine]	human AspH (His6-AspH315–758) (Homo sapiens)	47.77
C[C@@H]1C=C2C(=O)O[C@@H]3CC[C@H](C1)[C@]23O [Galiellalactone]	human AspH (His6-AspH315–758) (Homo sapiens)	47.76
CC(C)Cn1cnc2c(N)nc3ccccc3c21 [Imiquimod]	human AspH (His6-AspH315–758) (Homo sapiens)	49.43

With those in mind, consider the next compound.
Recorded result, Oc1ccc2c(c1)CC[C@H](c1ccccc1)[C@@H]2c1ccc(OCCN2CCCC2)cc1 [Lasofoxifene] , Plate 1-duplicate (% conversion): 52.90

Source of measurements: paper PMC7588595
